Target: Insulin receptor (Homo sapiens)
Sequence (P06213 28-758 limits assumed): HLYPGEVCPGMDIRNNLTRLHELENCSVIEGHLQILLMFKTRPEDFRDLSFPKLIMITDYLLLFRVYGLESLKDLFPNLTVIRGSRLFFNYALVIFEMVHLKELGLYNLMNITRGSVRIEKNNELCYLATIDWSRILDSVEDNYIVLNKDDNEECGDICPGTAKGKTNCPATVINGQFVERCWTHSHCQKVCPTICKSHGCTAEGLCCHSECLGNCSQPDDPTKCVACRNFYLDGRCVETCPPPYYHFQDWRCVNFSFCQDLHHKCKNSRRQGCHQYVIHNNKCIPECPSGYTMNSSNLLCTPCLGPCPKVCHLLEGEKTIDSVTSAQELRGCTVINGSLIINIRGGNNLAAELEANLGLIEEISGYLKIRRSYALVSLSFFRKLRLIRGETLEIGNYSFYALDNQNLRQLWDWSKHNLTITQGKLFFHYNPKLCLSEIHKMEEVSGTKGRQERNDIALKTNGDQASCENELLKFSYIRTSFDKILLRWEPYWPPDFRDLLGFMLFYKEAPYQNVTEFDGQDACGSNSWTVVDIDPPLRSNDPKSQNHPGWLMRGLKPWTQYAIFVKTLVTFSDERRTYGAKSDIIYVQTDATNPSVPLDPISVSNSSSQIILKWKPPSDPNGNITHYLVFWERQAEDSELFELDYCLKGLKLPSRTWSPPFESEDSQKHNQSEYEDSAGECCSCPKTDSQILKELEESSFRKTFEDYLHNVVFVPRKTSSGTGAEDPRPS
Sequence (P06213 763-1382 limits assumed): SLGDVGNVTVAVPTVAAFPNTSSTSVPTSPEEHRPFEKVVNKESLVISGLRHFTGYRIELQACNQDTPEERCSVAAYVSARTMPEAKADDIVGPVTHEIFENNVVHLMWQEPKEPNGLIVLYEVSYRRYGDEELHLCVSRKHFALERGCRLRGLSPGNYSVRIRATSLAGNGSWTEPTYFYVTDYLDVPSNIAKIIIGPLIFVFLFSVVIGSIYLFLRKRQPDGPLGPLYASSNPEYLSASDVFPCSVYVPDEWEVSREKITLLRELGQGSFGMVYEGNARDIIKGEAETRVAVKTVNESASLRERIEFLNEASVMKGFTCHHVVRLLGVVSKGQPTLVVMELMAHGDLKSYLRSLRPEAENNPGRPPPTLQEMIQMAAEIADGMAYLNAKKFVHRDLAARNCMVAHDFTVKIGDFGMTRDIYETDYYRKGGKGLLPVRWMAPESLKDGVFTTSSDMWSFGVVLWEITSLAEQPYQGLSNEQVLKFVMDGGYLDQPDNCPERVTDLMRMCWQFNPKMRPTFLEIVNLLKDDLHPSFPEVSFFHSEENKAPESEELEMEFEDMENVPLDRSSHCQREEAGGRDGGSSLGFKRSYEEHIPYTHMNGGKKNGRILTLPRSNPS
Result Type: pIC50
Numbers only, as −log10 of the molar value.

Provide value of pIC50 for this record tested with Insulin receptor (Homo sapiens): "O=C(Nc1ccc2c(c1)C=Nc1c(Cl)ncnc1O2)Nc1ccc(Cl)c(C(F)(F)F)c1"
5.02
